- Test system: UACC-257
- MEASUREMENT PROTOCOL: NCI tumour cell line growth inhibition, 48 h
The source made the active and inactive calls. No stated cut-off is given here; in the data, active = GI50 up to about 1.1 µM and inactive = higher. Residues, ends and D or L forms follow the SMILES beside them. *: point of attachment. Fmoc = O=C(OCC1c2ccccc2-c2ccccc21)*; Boc = CC(C)(C)OC(=O)*
Outcomes you can answer with include only these: yes (1) (active), no (0) (inactive)

Check out these entries, answers already filled in.
FC(F)(F)c1ccc2c(c1)nc(Cc1ccc(Cl)cc1)n2CC1CCCN2CCCCC12 (centres undefined)    no (0)
[N-]=[N+]=NI1OC(C(F)(F)F)(C(F)(F)F)c2ccccc21    no (0)
CC1OC(OC2C[C@](O)(C(=O)CF)Cc3c(O)c4c(c(O)c32)C(=O)c2ccccc2C4=O)CC(N)C1O (some centres undefined)    yes (1)
C=C(C)C(=O)O[C@H]1C/C(CO)=C/CCC(=C)C(OC(C)=O)[C@H]2OC(=O)C(=C)[C@H]12 (some centres undefined)    no (0)
CC(C)(C)OC(=O)NCCCCC(NC(=O)C(Cc1c[nH]c2ccccc12)NC(=O)OCC1c2ccccc2-c2ccccc21)C(=O)N1CCCC1C(=O)NCC(N)=O (centres undefined) (Fmoc-WK(Boc)PG-NH2; configuration not given here)    no (0)
O=C1CSC(c2ccccc2)N1c1nc2cc3sc(N4C(=O)CSC4c4ccccc4)nc3cc2s1 (centres undefined)    no (0)

With those in mind, consider the next molecule.
Look up the recorded call for `COc1ccc(Sc2ccccc2[N+](=O)[O-])cc1` in this test.
no (0)

====

- Tested on: MOLT-4
- MEASUREMENT PROTOCOL: NCI tumour cell line growth inhibition, 48 h
Activity calls are given as the source filed them. Rule as the data show it: active = GI50 up to about 1.1 µM and inactive = higher.
Readings of GI50 for the listed molecules

// known answers, use as guide
O=C(CC(C(=O)c1ccsc1)c1cccs1)c1cccs1 (stereo not drawn)    33 µM (inactive)
COC(=O)c1ccc2c(c1)CC1(C2)Cc2ccccc2C1=O (stereo not drawn)    15.4 µM (inactive)

# evaluate next
Measured GI50 of CC(NNC(=O)c1ccncc1)c1ccc(Cl)c(Cl)c1 (stereo not drawn) : 48.9 µM (inactive)

====

- System: 786-0
- MEASUREMENT PROTOCOL: NCI tumour cell line growth inhibition, 48 h
The source made the active and inactive calls. Rule as the data show it: active = GI50 up to about 1.1 µM and inactive = higher.
Outcomes you can answer with include only these: active, inactive

Check out these entries, answers already filled in.
COc1cccc(NC(=O)C(C)(C)C)c1C=O    inactive
C#CCNC(=O)NCCCCC(NC(=O)OCc1ccccc1)C(=O)OCc1ccccc1 (centres undefined)    inactive
COc1cc2cnc(-c3ccccc3)cc2cc1OC    inactive

Look up the recorded call for `Cc1ccnc2nc(-c3ccc(F)cc3)cc(O)c12` in this test.
inactive

====

- Tested on: Hs-578T
- MEASUREMENT PROTOCOL: NCI tumour cell line growth inhibition, 48 h
Active and inactive are the calls of the source. Cut-off read from the data, not from the text of the source: active = GI50 up to about 1.1 µM and inactive = higher.
OBSERVED PROPERTY: GI50

// known answers, use as guide
c1ccc(C(=NCCC2CNc3ccccc32)c2ccccc2)cc1 (configuration not stated)    > 100 µM (inactive)
Cc1cccc(C(C)(C)C)c1NC(=O)C(C#N)C1=C(Cl)C(=O)c2ccccc2C1=O (configuration not stated)    21.1 µM (inactive)

Tested on Hs-578T: `c1ccc(-c2cc(-c3cc(-c4ccccn4)[nH]n3)n[nH]2)nc1` . Observed GI50: > 100 µM (inactive)

Tested on Hs-578T: `COc1cc(CNC(=O)CCCCCCCC/C=C/Br)ccc1O` . Observed GI50: > 10 µM (inactive)

Tested on Hs-578T: `Cc1ccc(Nc2cc(=O)[nH]c(=O)[nH]2)cc1CS` . Observed GI50: > 100 µM (inactive)

Tested on Hs-578T: CC1CCC2c3c([nH]c4ccccc34)C3C(=O)N(C4CCCCC4)C(=O)C3C2C1 (configuration not stated) . Observed GI50: 13 µM (inactive)

Tested on Hs-578T: CN(C)CC1CCCCCCCCCC(CN(C)C)C1=O (configuration not stated) . Observed GI50: 8.18 µM (inactive)
